- Tested on: PER-403
- measurement notes: IC50 cell viability (Alamar Blue, 96 h)
Threshold 30 nM. IC50 cell viability below it: TRUE. IC50 cell viability at it or above: FALSE.

{"compound": "COc1cc2c(cc1-c1c(C)noc1C)ncc1[nH]c(=O)n([C@H](C)c3ccccn3)c12", "label value": "FALSE"}
{"compound": "Cc1cc(/C=C/c2ccc3cc(N(C)C)ccc3[n+]2C)c(C)n1-c1ccccc1 [Pyrvinium pamoate]", "label value": "FALSE"}
{"compound": "CC[C@@]1(O)C(=O)OCc2c1cc1n(c2=O)Cc2cc3c(CN(C)C)c(O)ccc3nc2-1", "label value": "TRUE"}
{"compound": "CC[C@]1(O)C[C@H]2CN(CCc3c([nH]c4ccccc34)[C@@](C(=O)OC)(c3cc4c(cc3OC)N(C=O)[C@H]3[C@@](O)(C(=O)OC)[C@H](OC(C)=O)[C@]5(CC)C=CCN6CC[C@]43[C@@H]65)C2)C1", "label value": "TRUE"}
{"compound": "CCCOc1ccn2c(C(C)=O)cc(-c3ccccc3S(C)(=O)=O)c2c1", "label value": "FALSE"}

Incoming: Identify whether the compound CCN(CCCOc1ccc2c(Nc3cc(CC(=O)Nc4cccc(F)c4)[nH]n3)ncnc2c1)CCOP(=O)(O)O records IC50 cell viability below 30 nM.
Outgoing: TRUE

----------
- System: PER-535
- measurement notes: IC50 cell viability (Alamar Blue, 96 h)
reported property: IC50 cell viability (µM)
Quick note: give the figure in µM, leave out the unit.

{"mol smiles": "COc1cc(Nc2ncc3c(n2)-c2ccc(Cl)cc2C(c2c(F)cccc2OC)=NC3)ccc1C(=O)O", "target system": "PER-535", "reported property": "IC50 cell viability", "recorded number": 0.0374}
{"mol smiles": "Nc1ccn([C@@H]2O[C@H](CO)[C@@H](O)C2(F)F)c(=O)n1", "target system": "PER-535", "reported property": "IC50 cell viability", "recorded number": 0.00526}
{"mol smiles": "CC(=O)O[C@@]12CO[C@@H]1C[C@H](O)[C@@]1(C)C(=O)[C@H](O)C3=C(C)[C@@H](OC(=O)[C@H](O)[C@@H](NC(=O)OC(C)(C)C)c4ccccc4)C[C@@](O)([C@@H](OC(=O)c4ccccc4)[C@H]21)C3(C)C", "target system": "PER-535", "reported property": "IC50 cell viability", "recorded number": 0.00625}

Incoming: Form field: reported IC50 cell viability of O=C(CCCCCCC(=O)Nc1ccccc1)NO
Outgoing: 2.44

----------
IC50 cell viability values by entry
- System: 10326
- measurement notes: IC50 cell viability (Alamar Blue, 96 h)

{"compound": "C#Cc1cccc(Nc2ncnc3cc(OCCOC)c(OCCOC)cc23)c1 [Erlotinib]", "IC50 cell viability": "> 10000 nM"}
{"compound": "CC(=O)O[C@@]12CO[C@@H]1C[C@H](O)[C@@]1(C)C(=O)[C@H](O)C3=C(C)[C@@H](OC(=O)[C@H](O)[C@@H](NC(=O)OC(C)(C)C)c4ccccc4)C[C@@](O)([C@@H](OC(=O)c4ccccc4)[C@H]21)C3(C)C [Docetaxel]", "IC50 cell viability": "< 2.5 nM"}
{"compound": "O=C1c2c(O)ccc(O)c2C(=O)c2c(NCCNCCO)ccc(NCCNCCO)c21 [Mitoxantrone]", "IC50 cell viability": "< 2.5 nM"}
{"compound": "CC[C@]1(O)C[C@H]2CN(CCc3c([nH]c4ccccc34)[C@@](C(=O)OC)(c3cc4c(cc3OC)N(C=O)[C@H]3[C@@](O)(C(=O)OC)[C@H](OC(C)=O)[C@]5(CC)C=CCN6CC[C@]43[C@@H]65)C2)C1 [Vincristine]", "IC50 cell viability": "< 2.5 nM"}
{"compound": "C/C(=C\\c1csc(C)n1)[C@@H]1C[C@@H]2O[C@]2(C)CCC[C@H](C)[C@H](O)[C@@H](C)C(=O)C(C)(C)[C@@H](O)CC(=O)O1 [Epothilone B]", "IC50 cell viability": "< 2.5 nM"}

Incoming: Item under review: CN(Cc1cnc2nc(N)nc(N)c2n1)c1ccc(C(=O)N[C@@H](CCC(=O)O)C(=O)O)cc1 [Methotrexate] . Reported IC50 cell viability?
Outgoing: > 10000 nM

Incoming: And then CCCOc1ccn2c(C(C)=O)cc(-c3ccccc3S(C)(=O)=O)c2c1 [GSK-2801] , what is it?
Outgoing: > 10000 nM
